These data points were gathered from ChEMBL document CHEMBL4431383.

# assay.text: Selectivity ratio of IC50 for recombinant human COX-2 to IC50 for ovine COX-1
endpoint.label: Ratio IC50

a = NS(=O)(=O)c1ccc(-c2nnnn2-c2ccc(CO)cc2)cc1
b = CS(=O)(=O)c1ccc(-c2nnnn2-c2ccc(CO)cc2)cc1
Ask: Would you let me know which has the greater Ratio IC50 value, a or b ? Label of pick, please.
Reply: b

* * *

# test.target: Prostaglandin G/H synthase 1 (Ovis aries, UniProt P05979)
# Sequence (P05979 whole entry): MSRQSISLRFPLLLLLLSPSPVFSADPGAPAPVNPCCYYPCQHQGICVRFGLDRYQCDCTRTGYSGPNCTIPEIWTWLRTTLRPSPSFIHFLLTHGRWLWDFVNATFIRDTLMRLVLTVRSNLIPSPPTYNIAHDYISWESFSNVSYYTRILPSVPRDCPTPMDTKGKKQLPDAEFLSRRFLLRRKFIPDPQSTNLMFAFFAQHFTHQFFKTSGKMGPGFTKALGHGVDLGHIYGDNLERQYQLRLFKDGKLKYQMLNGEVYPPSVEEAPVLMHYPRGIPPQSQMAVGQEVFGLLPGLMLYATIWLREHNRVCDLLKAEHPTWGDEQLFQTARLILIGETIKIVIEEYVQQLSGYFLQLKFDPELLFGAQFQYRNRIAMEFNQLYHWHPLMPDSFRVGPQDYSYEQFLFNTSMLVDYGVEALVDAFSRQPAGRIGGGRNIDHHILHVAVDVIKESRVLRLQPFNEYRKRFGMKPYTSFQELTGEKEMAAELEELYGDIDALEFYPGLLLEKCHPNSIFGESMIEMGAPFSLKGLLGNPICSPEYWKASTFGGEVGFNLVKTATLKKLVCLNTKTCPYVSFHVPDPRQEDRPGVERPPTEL
endpoint.label: IC50 (µM)

A = NS(=O)(=O)c1ccc(-c2nnnn2-c2ccc(O)cc2)cc1
B = NS(=O)(=O)c1ccc(-c2nnnn2-c2ccc(CO)cc2)cc1
Ask: Select one. Lower IC50: A or B Label of pick, please.
Reply: B
(B: 21 µM, A: 100 µM)

* * *

# test.target: Prostaglandin G/H synthase 2 (Homo sapiens, UniProt P35354)
# assay.text: Inhibition of recombinant human COX2 assessed as PGH2 formation preincubated for 10 mins followed by addition of arachidonic acid as substrate measured after 2 mins by ELISA
pIC50: −log10 of the molar value.
endpoint.label: pIC50

given.smiles	endpoint.label	quantitative.result
NS(=O)(=O)c1ccc(-c2nnnn2-c2ccc(CCO)cc2)cc1	pIC50	4.00
CS(=O)(=O)c1ccc(Cc2nnnn2-c2ccc(CO)cc2)cc1	pIC50	4.42

I = NS(=O)(=O)c1ccc(-c2nnnn2-c2ccc(CO)cc2)cc1
II = CS(=O)(=O)c1ccc(Cc2nnnn2-c2ccc(CCO)cc2)cc1
Ask: Select one. Lower pIC50: I or II Label of pick, please.
Reply: I

* * *

In this section, each of the molecules is paired with its reported Ratio IC50.
# assay.text: Selectivity ratio of IC50 for ovine COX-1 to IC50 for recombinant human COX-2

given.smiles	result
NS(=O)(=O)c1ccc(-c2nnnn2-c2ccc(CO)cc2)cc1	0.87
CS(=O)(=O)c1ccc(-c2nnnn2-c2ccc(O)cc2)cc1	> 1.7

Now look at this one.
Entry `CS(=O)(=O)c1ccc(-c2nnnn2-c2ccc(CO)cc2)cc1` — recorded Ratio IC50 = > 0.02

* * *

# test.target: Prostaglandin G/H synthase 1 (Ovis aries)
# Sequence (P05979 whole entry): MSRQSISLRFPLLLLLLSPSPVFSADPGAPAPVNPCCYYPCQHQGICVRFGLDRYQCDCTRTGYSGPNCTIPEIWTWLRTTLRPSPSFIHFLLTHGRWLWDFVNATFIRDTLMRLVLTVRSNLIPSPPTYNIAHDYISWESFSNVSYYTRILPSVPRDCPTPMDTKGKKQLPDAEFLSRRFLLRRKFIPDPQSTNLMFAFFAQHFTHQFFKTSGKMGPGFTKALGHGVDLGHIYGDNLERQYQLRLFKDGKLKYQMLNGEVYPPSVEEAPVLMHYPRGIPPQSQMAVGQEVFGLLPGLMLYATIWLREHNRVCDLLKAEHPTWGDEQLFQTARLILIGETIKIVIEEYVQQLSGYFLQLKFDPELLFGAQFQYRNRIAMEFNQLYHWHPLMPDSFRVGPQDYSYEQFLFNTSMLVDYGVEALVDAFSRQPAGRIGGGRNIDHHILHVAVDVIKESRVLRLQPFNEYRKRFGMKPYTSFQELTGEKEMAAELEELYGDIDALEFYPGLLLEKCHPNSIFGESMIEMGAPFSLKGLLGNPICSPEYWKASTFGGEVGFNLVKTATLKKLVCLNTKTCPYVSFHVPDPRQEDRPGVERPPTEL
endpoint.label: IC50

Below are worked cases with known answers.
given.smiles	IC50
NS(=O)(=O)c1ccc(-c2nnnn2-c2ccc(CCO)cc2)cc1	> 200 µM
CS(=O)(=O)c1ccc(Cc2nnnn2-c2ccc(CCO)cc2)cc1	> 200 µM

Now look at this one.
Entry `CS(=O)(=O)c1ccc(Cc2nnnn2-c2ccc(CO)cc2)cc1` — recorded IC50 = > 200 µM

* * *

# test.target: Prostaglandin G/H synthase 2 (Homo sapiens)
# Sequence (P35354 whole entry): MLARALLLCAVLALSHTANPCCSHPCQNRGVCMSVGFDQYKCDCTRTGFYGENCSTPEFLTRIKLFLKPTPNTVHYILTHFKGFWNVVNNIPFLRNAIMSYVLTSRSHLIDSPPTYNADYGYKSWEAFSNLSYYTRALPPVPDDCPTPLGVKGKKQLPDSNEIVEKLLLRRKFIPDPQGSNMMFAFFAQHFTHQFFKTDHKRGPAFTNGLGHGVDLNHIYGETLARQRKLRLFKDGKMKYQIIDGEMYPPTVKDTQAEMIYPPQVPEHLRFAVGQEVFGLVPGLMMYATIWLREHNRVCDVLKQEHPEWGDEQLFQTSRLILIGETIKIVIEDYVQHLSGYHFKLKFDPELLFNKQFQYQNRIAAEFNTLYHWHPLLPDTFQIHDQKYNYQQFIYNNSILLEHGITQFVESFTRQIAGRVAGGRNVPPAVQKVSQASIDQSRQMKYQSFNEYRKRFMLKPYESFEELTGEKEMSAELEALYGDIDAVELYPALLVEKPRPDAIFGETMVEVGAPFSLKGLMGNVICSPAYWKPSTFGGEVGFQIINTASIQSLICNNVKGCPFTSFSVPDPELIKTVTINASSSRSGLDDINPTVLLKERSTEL
# assay.text: Inhibition of recombinant human COX2 assessed as PGH2 formation preincubated for 10 mins followed by addition of arachidonic acid as substrate measured after 2 mins by ELISA
In this section, each of the compounds is paired with its reported IC50.

Below are worked cases with known answers.
given.smiles	test.target	result
NS(=O)(=O)c1ccc(-c2nnnn2-c2ccc(O)cc2)cc1	Prostaglandin G/H synthase 2 (Homo sapiens)	> 500 µM
CS(=O)(=O)c1ccc(-c2nnnn2-c2ccc(CO)cc2)cc1	Prostaglandin G/H synthase 2 (Homo sapiens)	> 500 µM
CS(=O)(=O)c1ccc(-c2nnnn2-c2ccc(CCO)cc2)cc1	Prostaglandin G/H synthase 2 (Homo sapiens)	70 µM
CS(=O)(=O)c1ccc(-c2nnnn2-c2ccc(O)cc2)cc1	Prostaglandin G/H synthase 2 (Homo sapiens)	> 300 µM

Now look at this one.
Entry `CS(=O)(=O)c1ccc(Cc2nnnn2-c2ccc(O)cc2)cc1` — recorded IC50 = > 200 µM
